target: Kappa-type opioid receptor (Homo sapiens, UniProt P41145); assay: Agonist activity at human kappa opioid receptor expressed in CHO cells assessed as stimulation of [35S]-GTPgammaS binding
Sequence (P41145 whole entry): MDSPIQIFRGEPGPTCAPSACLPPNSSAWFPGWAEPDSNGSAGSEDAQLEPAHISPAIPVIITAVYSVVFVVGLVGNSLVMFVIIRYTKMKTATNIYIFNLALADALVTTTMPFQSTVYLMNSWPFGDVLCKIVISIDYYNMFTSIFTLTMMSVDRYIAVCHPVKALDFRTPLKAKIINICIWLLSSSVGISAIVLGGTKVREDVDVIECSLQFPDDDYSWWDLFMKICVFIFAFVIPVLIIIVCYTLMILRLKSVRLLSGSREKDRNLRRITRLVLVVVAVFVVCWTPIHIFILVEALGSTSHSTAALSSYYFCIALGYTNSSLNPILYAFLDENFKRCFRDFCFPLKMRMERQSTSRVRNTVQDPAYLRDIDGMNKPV
# EC50 per entry
outcomeMeasure: EC50 (nM)

1) C[C@@]1(c2cccc(O)c2)O[C@H]2CO[C@@H]3N2[C@H]1O[C@]3(C)c1cccc(O)c1 (relative stereo) | 97.5
2) C[C@@]1(c2cccc(O)c2)O[C@H]2CO[C@@H]3N2[C@H]1O[C@]3(C)c1cccc(O)c1 | 50.3

---

molecular target: Delta-type opioid receptor (Homo sapiens, UniProt P41143); assay: Agonist activity at human delta opioid receptor expressed in CHO cells assessed as stimulation of [35S]-GTPgammaS binding
Sequence (P41143 whole entry): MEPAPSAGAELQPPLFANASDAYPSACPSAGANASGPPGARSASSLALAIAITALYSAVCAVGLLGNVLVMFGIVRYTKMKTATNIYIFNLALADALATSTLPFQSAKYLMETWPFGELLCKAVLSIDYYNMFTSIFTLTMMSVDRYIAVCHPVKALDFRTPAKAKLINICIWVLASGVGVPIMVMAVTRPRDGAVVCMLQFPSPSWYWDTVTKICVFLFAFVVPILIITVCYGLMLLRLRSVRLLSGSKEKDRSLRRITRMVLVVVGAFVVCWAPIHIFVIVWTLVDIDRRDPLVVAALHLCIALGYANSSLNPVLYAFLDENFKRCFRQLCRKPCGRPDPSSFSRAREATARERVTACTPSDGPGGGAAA
outcomeMeasure: EC50 (nM)

1. C[C@@]1(c2cccc(O)c2)O[C@H]2CO[C@@H]3N2[C@H]1O[C@]3(C)c1cccc(O)c1 | 83.7

---

target: Mu-type opioid receptor (Mus musculus, UniProt P42866); test: Displacement of [3H]DAMGO from mu opioid receptor in mouse whole brain without cerebellum
Sequence (P42866 whole entry): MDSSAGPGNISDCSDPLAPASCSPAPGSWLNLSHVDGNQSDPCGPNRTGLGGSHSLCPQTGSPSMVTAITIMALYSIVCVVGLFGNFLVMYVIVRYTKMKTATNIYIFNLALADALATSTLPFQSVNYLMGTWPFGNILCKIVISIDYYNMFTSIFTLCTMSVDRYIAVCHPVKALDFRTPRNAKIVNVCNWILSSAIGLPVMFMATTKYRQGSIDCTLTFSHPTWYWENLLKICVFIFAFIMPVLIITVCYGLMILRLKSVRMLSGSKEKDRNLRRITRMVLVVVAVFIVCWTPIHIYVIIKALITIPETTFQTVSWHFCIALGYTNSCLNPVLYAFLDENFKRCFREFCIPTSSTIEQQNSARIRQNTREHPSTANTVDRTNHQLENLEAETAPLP
# Ki per entry
outcomeMeasure: Ki

1. C[C@@]1(c2cccc(O)c2)O[C@@H]2N3[C@H]1O[C@](C)(c1cccc(O)c1)[C@@H]3O[C@]2(C)c1cccc(O)c1 (relative stereo) | 928 nM
2. C[C@@]1(c2cccc(O)c2)O[C@H]2CO[C@H]3CO[C@@H]1N32 (relative stereo) | > 1000 nM
3. C[C@@]1(c2cccc(O)c2)O[C@H]2CO[C@@H]3N2[C@H]1O[C@]3(C)c1cccc(O)c1 | > 1000 nM
4. C[C@@]1(c2cccc(O)c2)O[C@@H]2N3[C@H]1O[C@@](C)(c1cccc(O)c1)[C@@H]3O[C@@]2(C)c1cccc(O)c1 (relative stereo) | > 1000 nM
5. C[C@@]1(c2cccc(O)c2)O[C@H]2CO[C@@H]3N2[C@H]1O[C@@]3(C)c1cccc(O)c1 (relative stereo) | 735 nM
6. C[C@@]1(c2cccc(O)c2)O[C@@H]2N3[C@H]1O[C@](C)(c1cccc(O)c1)[C@@H]3O[C@@]2(C)c1cccc(O)c1 (relative stereo) | 652 nM
7. C[C@]1(c2cccc(O)c2)O[C@H]2CO[C@H]3CO[C@@H]1N32 (relative stereo) | > 1000 nM
8. C[C@@]1(c2cccc(O)c2)O[C@H]2CO[C@@H]3N2[C@H]1O[C@]3(C)c1cccc(O)c1 (relative stereo) | > 1000 nM
9. COc1cccc([C@]2(C)O[C@H]3CO[C@@H]4N3[C@H]2O[C@]4(C)c2cccc(O)c2)c1 (relative stereo) | > 1000 nM
10. CC1(c2cccc(O)c2)OC2COC3N2C1OC3(C)c1cccc(O)c1 (centres undefined) | 293 nM
11. C[C@]1(c2cccc(O)c2)O[C@H]2CO[C@@H]3N2[C@H]1O[C@]3(C)c1cccc(O)c1 (relative stereo) | > 1000 nM
12. COc1cccc([C@@]2(C)O[C@@H]3N4[C@H](CO[C@H]42)O[C@@]3(C)c2cccc(O)c2)c1 (relative stereo) | > 1000 nM
13. COc1cccc([C@]2(C)O[C@H]3CO[C@@H]4N3[C@H]2O[C@]4(C)c2cccc(OC)c2)c1 (relative stereo) | > 1000 nM
14. C[C@@]1(c2cccc(O)c2)O[C@@H]2N3[C@H](CO[C@H]31)O[C@]2(C)c1cccc(O)c1 (relative stereo) | > 1000 nM

Reference source: ChEMBL document CHEMBL3352010
